study_target: Aminopeptidase N (Sus scrofa, UniProt P15145)
Sequence (P15145 whole entry): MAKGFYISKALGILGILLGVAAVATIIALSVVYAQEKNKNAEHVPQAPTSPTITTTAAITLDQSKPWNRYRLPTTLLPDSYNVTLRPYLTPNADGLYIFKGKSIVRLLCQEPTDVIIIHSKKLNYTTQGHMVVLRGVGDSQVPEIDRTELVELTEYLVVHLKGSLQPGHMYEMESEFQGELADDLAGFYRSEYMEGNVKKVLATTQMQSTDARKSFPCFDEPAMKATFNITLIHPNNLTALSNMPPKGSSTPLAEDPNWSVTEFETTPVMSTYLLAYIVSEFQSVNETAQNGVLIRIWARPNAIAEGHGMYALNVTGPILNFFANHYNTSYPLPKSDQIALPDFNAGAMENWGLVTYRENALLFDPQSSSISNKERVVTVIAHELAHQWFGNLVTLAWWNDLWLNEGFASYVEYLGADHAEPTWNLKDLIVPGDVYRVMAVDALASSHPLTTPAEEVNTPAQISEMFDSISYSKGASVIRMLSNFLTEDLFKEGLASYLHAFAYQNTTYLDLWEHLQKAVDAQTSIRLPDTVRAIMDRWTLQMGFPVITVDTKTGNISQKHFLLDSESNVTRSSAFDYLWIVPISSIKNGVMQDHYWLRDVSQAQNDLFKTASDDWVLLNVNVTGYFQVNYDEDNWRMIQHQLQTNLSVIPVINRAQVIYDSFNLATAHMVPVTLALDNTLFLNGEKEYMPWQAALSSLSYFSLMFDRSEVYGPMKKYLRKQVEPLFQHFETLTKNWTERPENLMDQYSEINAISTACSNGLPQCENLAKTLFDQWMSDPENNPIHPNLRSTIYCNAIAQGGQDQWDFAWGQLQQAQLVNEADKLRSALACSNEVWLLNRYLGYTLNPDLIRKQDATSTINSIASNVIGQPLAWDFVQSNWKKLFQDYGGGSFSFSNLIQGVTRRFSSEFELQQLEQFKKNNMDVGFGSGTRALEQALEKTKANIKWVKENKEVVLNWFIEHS
With a cut-off of 4 µM, any Ki strictly below it is called true (1); any Ki meeting it or above is called false (0).

• NC(CS)CCP(=O)(O)O (stereo not drawn) = false (0)

Exercise: Lab note: confirm whether the reported Ki for this molecule is below 4 µM, equality not counting. molecule: NC(CS)CCCP(=O)(O)O (stereo not drawn)
Solution: true (1)

Exercise: Record N[C@H](CS)CCCS(=O)(=O)O : is its Ki strictly below 4 µM?
Solution: true (1)

Exercise: Record N[C@@H](CS)CCCC(=O)O : is its Ki strictly below 4 µM?
Solution: false (0)

Exercise: Lab log: compare recorded Ki with 4 µM; is it strictly lower for NC(CS)CCC(C(=O)O)C(=O)O (stereo not drawn) ?
Solution: true (1)

Exercise: Quick check: does NC(CS)CCCCC(=O)O (stereo not drawn) have Ki under 4 µM?
Solution: true (1)

Exercise: State whether 4 µM exceeds Ki recorded for N[C@H](CS)CCCC(=O)O .
Solution: true (1)

Taken from ChEMBL document CHEMBL1127454.
